- target-under-test: thrombin receptor (Homo sapiens)
- Construct: washed human platelets are prepared from blood drawn from healthy volunteers; endogenous in cells; host or cells: washed human platelets from healthy volunteers
- test-name: Platelet aggregation assay for thrombin receptor antagonist activity (washed human platelets stimulated with α-thrombin)
- Assay type: cell-based
*1 amine or outer side, *2 acyl side, *3 side chain or, on linkers, in order; H or OH if unused. Where a SMILES comes first, the peptide text is derived from it. [ ]: non-standard residue; d: D form. The star is where a group is joined. X10 = O=C([C@H](Cc1ccccc1)N(CCCc1ccccc1)[*:1])[*:2]; X23 = O=C([C@H](Cc1ccccc1)N(CCC1CCCC1)[*:1])[*:2]; X16 = CCCCCN([C@@H](Cc1ccccc1)C(=O)[*:2])[*:1]; X5 = CCCCCN(C)[C@@H](Cc1ccccc1)C(=O)*; Cha = N[C@@H](CC1CCCCC1)C(=O)O
attribute-measured: IC50

Solved cases (3 shown):
compound	IC50
CCCCCN(C)[C@@H](Cc1ccccc1)C(=O)N[C@@H](CC1CCCCC1)C(=O)N[C@@H](CC1CCCCC1)C(=O)N[C@@H](CCCNC(=N)N)C(=O)N[C@@H](CCCCN)C(N)=O [Compound 15] (X5-[Cha][Cha]RK-NH2)	10 µM
N=C(N)NCCC[C@H](NC(=O)[C@H](CC1CCCCC1)NC(=O)[C@H](CC1CCCCC1)NC(=O)[C@H](Cc1ccccc1)NCCCc1ccccc1)C(=O)N[C@@H](CCCCN)C(=O)N1CCC[C@H]1C(=O)N[C@@H](CC(N)=O)C(=O)N[C@@H](CC(=O)O)C(=O)N[C@@H](CCCCN)C(N)=O [Compound 7] (H-[X10][Cha][Cha]RKPNDK-NH2)	5 µM
CCCCCN[C@@H](Cc1ccccc1)C(=O)N[C@@H](CC1CCCCC1)C(=O)N[C@@H](CC1CCCCC1)C(=O)N[C@@H](CCCNC(=N)N)C(=O)N[C@@H](CCCCN)C(N)=O [Compound 14] (H-[X16][Cha][Cha]RK-NH2)	5 µM

Shift focus to the following entry.
For N=C(N)NCCC[C@H](NC(=O)[C@H](CC1CCCCC1)NC(=O)[C@H](CC1CCCCC1)NC(=O)[C@H](Cc1ccccc1)NCCC1CCCC1)C(=O)N[C@@H](CCCCN)C(=O)N1CCC[C@H]1C(=O)N[C@@H](CC(N)=O)C(=O)N[C@@H](CC(=O)O)C(=O)N[C@@H](CCCCN)C(N)=O [Compound 6] (H-[X23][Cha][Cha]RKPNDK-NH2) the compound record lists IC50 as 10 µM

====

- target-under-test: thrombin receptor (Homo sapiens, UniProt P25116)
- Construct: washed human platelets are prepared from blood drawn from healthy volunteers; endogenous in cells; host or cells: washed human platelets from healthy volunteers
- Sequence (P25116 22-425): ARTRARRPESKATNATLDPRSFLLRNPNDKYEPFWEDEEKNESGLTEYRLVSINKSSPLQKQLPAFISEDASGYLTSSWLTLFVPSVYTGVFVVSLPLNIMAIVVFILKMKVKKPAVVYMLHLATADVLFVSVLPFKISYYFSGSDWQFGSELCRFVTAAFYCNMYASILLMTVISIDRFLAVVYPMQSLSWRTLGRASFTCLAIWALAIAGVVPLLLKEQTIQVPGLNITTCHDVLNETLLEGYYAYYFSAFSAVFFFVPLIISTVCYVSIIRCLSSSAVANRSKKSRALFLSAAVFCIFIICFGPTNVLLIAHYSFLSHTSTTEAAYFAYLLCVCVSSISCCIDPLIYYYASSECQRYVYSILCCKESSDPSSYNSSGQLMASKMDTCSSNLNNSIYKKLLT
- test-name: Platelet aggregation assay for thrombin receptor antagonist activity (washed human platelets stimulated with α-thrombin)
- Type: cell-based
- condition: washed human platelets, thrombin-mediated aggregation; read-out: IC50 (concentration at which 50% inhibition of platelet aggregation is achieved)
- Protocol: The compounds of the present invention may be tested for thrombin receptor antagonist activity by using a platelet aggregation assay. […] Approximately 0.4-10 nM α-thrombin is used to stimulate platelet aggregation in control reactions which are monitored by aggregometry using an aggregometer. […] Platelet aggregation can also be measured with washed platelets in 96-well microtiter plates as described in Fratantoni, J. C. et al., Am. […]
*1 amine or outer side, *2 acyl side, *3 side chain or, on linkers, in order; H or OH if unused. Where a SMILES comes first, the peptide text is derived from it. [ ]: non-standard residue; d: D form. The star is where a group is joined. X16 = CCCCCN([C@@H](Cc1ccccc1)C(=O)[*:2])[*:1]; X4 = CCCCCN1Cc2ccccc2C[C@H]1C(=O)*; NMeR = CN[C@@H](CCCNC(=N)N)C(=O)O; Cha = N[C@@H](CC1CCCCC1)C(=O)O
attribute-measured: IC50 (µM)
Respond numerically; units are µM and should not be typed.

compound	attribute-measured	val
CCC(Oc1ccccc1)C(=O)N[C@@H](CC1CCCCC1)C(=O)N[C@@H](CC1CCCCC1)C(=O)NCCCN(C)C (stereo partly shown) [Compound 60]	IC50	25
CCCCCN[C@@H](Cc1ccccc1)C(=O)N[C@@H](CC1CCCCC1)C(=O)N[C@H](CC(C)C)C(=O)N[C@@H](CCCNC(=N)N)C(=O)N[C@@H](CCCCN)C(N)=O [Compound 44] (H-[X16][Cha][dL]RK-NH2)	IC50	5
CCCCCN1Cc2ccccc2C[C@H]1C(=O)N[C@@H](CC1CCCCC1)C(=O)N[C@@H](CC1CCCCC1)C(=O)N(C)[C@@H](CCCNC(=N)N)C(=O)N[C@@H](CCCNC(=N)N)C(N)=O [Compound 39] (X4-[Cha][Cha][NMeR]R-NH2)	IC50	8

Here is another compound to look at.
Reported IC50 ( CCCCCN[C@@H](Cc1ccccc1)C(=O)N[C@@H](CC1CCCCC1)C(=O)N[C@@H](CC1CCCCC1)C(=O)N[C@@H](CCCNC(=N)N)C(=O)N[C@@H](CCCCN)C(=O)N1CCC[C@H]1C(=O)N[C@@H](CC(N)=O)C(=O)N[C@@H](CC(=O)O)C(=O)N[C@@H](CCCCN)C(N)=O [Compound 5] (H-[X16][Cha][Cha]RKPNDK-NH2) ) = 2.5
